Molecular target: T1, human HVEM (human, UniProt Q92956 39-202, limits assumed); further: test concentration or dose not given here
T1 sequence (looked up): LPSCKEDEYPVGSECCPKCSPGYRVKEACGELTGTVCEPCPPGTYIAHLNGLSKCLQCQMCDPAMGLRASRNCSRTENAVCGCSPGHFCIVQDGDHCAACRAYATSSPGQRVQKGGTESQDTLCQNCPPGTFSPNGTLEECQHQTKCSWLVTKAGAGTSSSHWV
Experiment: ELISA
PARAMETER_MEASURED: ELISA signal
Please state the value as a number alone, without comment.

Can you look up the measured ELISA signal of Ab_008 (H5S14-11A10A) (antibody, V domains shown, also called Ab_8) VH: EVKLVESGGGLVKPGGSLRLSCAASGFTFSSFAMSWIRQTPEKGLEWVASITTGGSSYSPDSLKGRFTISRDNVRNIVYLQMSSLRSEDTAMYACARGGGGNYFWFAYWGQGTLVTVSA VL: DVVMTQTPLSLPVSLGDQASISCRSSQSLVHSNGNTYLHWYLQKPGQSPKLLIYKVSNRFSGVPDRFSGSGSGTDFTLKISRVEAEDLGVYFCSQSIHVPFTFGSGTKLEIK for me? 3.4

Can you look up the measured ELISA signal of Ab_052 (H5S19-18A17B) (antibody, V domains shown, also called Ab_52) VH: QVQLKESGPGLVAPSQSLSITCTVSGFSLTIYGVHWVRQPPGKGLEWLGVIWAGGIINYNSALMSRLSISKDNSKSQVFLKMNSLQSDDTAMYYCARDWERDSSGPFAYWGQGTLVTVSA VL: DIQMTQTTSSLSASLGDRVTISCSASQGISNYLNWYQQKPDGTVKLLIYYTSSLHSGVPSRFRGSGSGTDYSLTISNLEPEDIATYYCQQYSKLPWTFGGGTKLEIK for me? 2.88

Can you look up the measured ELISA signal of Ab_077 (H5S20-31A16B) (antibody, V domains shown, also called Ab_77) VH: EVQLQQSGAELVRSGASVKLSCTTSGFNIKDYYMHWVKQRPEQGLEWIGWIDPENGDTEYAPKFQGKATMTADTSSNTAYLQLSSLTSEDTAVYYCNSRTLGYWGQGTLVTVSA VL: QIVLTQSPALMSASPGEKVTMTCSASSSVSFIYWYQQKPRSSPKPWIYLTSNLASGVPARFSGSGSGTSYSLTISSMEAEDAATYYCQQWSSNPLTFGAGTKLEL for me? 0.147
